B1: TPR 5TU (parent)
chain: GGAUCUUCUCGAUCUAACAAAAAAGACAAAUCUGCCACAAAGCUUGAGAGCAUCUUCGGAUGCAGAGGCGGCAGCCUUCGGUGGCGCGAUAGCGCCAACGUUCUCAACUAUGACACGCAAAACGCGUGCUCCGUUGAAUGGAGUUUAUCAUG

variants of: B1; test: polymerase ribozyme fitness, log enrichment relative to wild type (log ratio); higher = more active; in vitro selection for triplet polymerase activity
Fewer inactive variants are shown than the library holds.
Catalogue of polymerase ribozyme fitness (log ratio) readings, one per entry.

[
  {
    "Mutation Key": "U4C C43U C85U G133A G141U",
    "Reading Qualifier": "≤",
    "polymerase ribozyme fitness (log ratio)": -4.2
  },
  {
    "Mutation Key": "C54A G92A",
    "Reading Qualifier": "≤",
    "polymerase ribozyme fitness (log ratio)": -4.2
  },
  {
    "Mutation Key": "G50C G80C C93A A98U",
    "Reading Qualifier": "≤",
    "polymerase ribozyme fitness (log ratio)": -4.2
  },
  {
    "Mutation Key": "G86U C123A",
    "Reading Qualifier": "=",
    "polymerase ribozyme fitness (log ratio)": -1.99
  },
  {
    "Mutation Key": "G84A U139G",
    "Reading Qualifier": "=",
    "polymerase ribozyme fitness (log ratio)": -0.68
  },
  {
    "Mutation Key": "A52U U53A C57A G58C A89U",
    "Reading Qualifier": "=",
    "polymerase ribozyme fitness (log ratio)": 0.000593
  },
  {
    "Mutation Key": "G50C A89U G94U C96U A115G",
    "Reading Qualifier": "≤",
    "polymerase ribozyme fitness (log ratio)": -4.2
  },
  {
    "Mutation Key": "A16U A37C C63U C95U A119U A122U",
    "Reading Qualifier": "=",
    "polymerase ribozyme fitness (log ratio)": -3.13
  },
  {
    "Mutation Key": "U13G A21U C57U G68A A73U G92C C103A",
    "Reading Qualifier": "≤",
    "polymerase ribozyme fitness (log ratio)": -4.2
  },
  {
    "Mutation Key": "C35G A49U G124C",
    "Reading Qualifier": "≤",
    "polymerase ribozyme fitness (log ratio)": -4.2
  },
  {
    "Mutation Key": "G68U U134G",
    "Reading Qualifier": "≤",
    "polymerase ribozyme fitness (log ratio)": -4.2
  },
  {
    "Mutation Key": "C14G C85G C103A",
    "Reading Qualifier": "≤",
    "polymerase ribozyme fitness (log ratio)": -4.2
  },
  {
    "Mutation Key": "C118U A120G G143C",
    "Reading Qualifier": "=",
    "polymerase ribozyme fitness (log ratio)": -2.13
  },
  {
    "Mutation Key": "C14U G25C A26C G42A A60U G84A C108U G152A",
    "Reading Qualifier": "≤",
    "polymerase ribozyme fitness (log ratio)": -4.2
  },
  {
    "Mutation Key": "U61G C85A G133C",
    "Reading Qualifier": "=",
    "polymerase ribozyme fitness (log ratio)": -3.52
  },
  {
    "Mutation Key": "C38A C76A A97G U134G",
    "Reading Qualifier": "=",
    "polymerase ribozyme fitness (log ratio)": -3.3
  },
  {
    "Mutation Key": "A20U A29U G71U G84A",
    "Reading Qualifier": "≤",
    "polymerase ribozyme fitness (log ratio)": -4.2
  },
  {
    "Mutation Key": "C8G C32U G80U",
    "Reading Qualifier": "=",
    "polymerase ribozyme fitness (log ratio)": -4.14
  },
  {
    "Mutation Key": "C57A G59A G84U A97U C118G",
    "Reading Qualifier": "=",
    "polymerase ribozyme fitness (log ratio)": -3.12
  },
  {
    "Mutation Key": "A19U G42U A113G A121U G124C U148A",
    "Reading Qualifier": "≤",
    "polymerase ribozyme fitness (log ratio)": -4.2
  },
  {
    "Mutation Key": "G83A A150U",
    "Reading Qualifier": "=",
    "polymerase ribozyme fitness (log ratio)": 0.356
  },
  {
    "Mutation Key": "A22U A40C G65A",
    "Reading Qualifier": "=",
    "polymerase ribozyme fitness (log ratio)": -3.81
  },
  {
    "Mutation Key": "A29U G84A",
    "Reading Qualifier": "≤",
    "polymerase ribozyme fitness (log ratio)": -4.2
  },
  {
    "Mutation Key": "C8G U15C A52G C57G G59U C87G",
    "Reading Qualifier": "=",
    "polymerase ribozyme fitness (log ratio)": -3.95
  },
  {
    "Mutation Key": "A19C G65A G83C",
    "Reading Qualifier": "=",
    "polymerase ribozyme fitness (log ratio)": -1.84
  },
  {
    "Mutation Key": "A41U C57U C85U",
    "Reading Qualifier": "=",
    "polymerase ribozyme fitness (log ratio)": -1.12
  },
  {
    "Mutation Key": "C5G G67U G70C G86A C132G",
    "Reading Qualifier": "≤",
    "polymerase ribozyme fitness (log ratio)": -4.2
  },
  {
    "Mutation Key": "U56G U151C",
    "Reading Qualifier": "≤",
    "polymerase ribozyme fitness (log ratio)": -4.2
  },
  {
    "Mutation Key": "A29U G126A",
    "Reading Qualifier": "≤",
    "polymerase ribozyme fitness (log ratio)": -4.2
  },
  {
    "Mutation Key": "C51A A52C C116U C118A A142U",
    "Reading Qualifier": "≤",
    "polymerase ribozyme fitness (log ratio)": -4.2
  },
  {
    "Mutation Key": "U101G G128U U144G",
    "Reading Qualifier": "=",
    "polymerase ribozyme fitness (log ratio)": -4
  },
  {
    "Mutation Key": "A30G A47G U56A G71C G117U A150U",
    "Reading Qualifier": "≤",
    "polymerase ribozyme fitness (log ratio)": -4.2
  },
  {
    "Mutation Key": "C87U C123U G126U",
    "Reading Qualifier": "=",
    "polymerase ribozyme fitness (log ratio)": 0.848
  },
  {
    "Mutation Key": "A37C A41C C72A C93U C125U",
    "Reading Qualifier": "≤",
    "polymerase ribozyme fitness (log ratio)": -4.2
  },
  {
    "Mutation Key": "C5G A52C G58A C93A C118U",
    "Reading Qualifier": "=",
    "polymerase ribozyme fitness (log ratio)": -3.09
  },
  {
    "Mutation Key": "A37G U61G C93U A115C",
    "Reading Qualifier": "=",
    "polymerase ribozyme fitness (log ratio)": -4.18
  },
  {
    "Mutation Key": "G42C U148C",
    "Reading Qualifier": "≤",
    "polymerase ribozyme fitness (log ratio)": -4.2
  },
  {
    "Mutation Key": "A12U U109G",
    "Reading Qualifier": "=",
    "polymerase ribozyme fitness (log ratio)": -2.25
  },
  {
    "Mutation Key": "G92U U101G C131U",
    "Reading Qualifier": "=",
    "polymerase ribozyme fitness (log ratio)": 0.547
  },
  {
    "Mutation Key": "A22U A39C U61A C72U C85G G141A",
    "Reading Qualifier": "≤",
    "polymerase ribozyme fitness (log ratio)": -4.2
  },
  {
    "Mutation Key": "G48A U56A C85U A110G G141U",
    "Reading Qualifier": "≤",
    "polymerase ribozyme fitness (log ratio)": -4.2
  },
  {
    "Mutation Key": "A22U G50U C96G",
    "Reading Qualifier": "=",
    "polymerase ribozyme fitness (log ratio)": 0.467
  },
  {
    "Mutation Key": "U13A A16G G86U",
    "Reading Qualifier": "=",
    "polymerase ribozyme fitness (log ratio)": -2.89
  },
  {
    "Mutation Key": "U15G C38U C87U U104A",
    "Reading Qualifier": "=",
    "polymerase ribozyme fitness (log ratio)": -1.04
  },
  {
    "Mutation Key": "C35U G50U G83U C87A A115C C118G",
    "Reading Qualifier": "≤",
    "polymerase ribozyme fitness (log ratio)": -4.2
  },
  {
    "Mutation Key": "A20G C51U G58A C85U A106U",
    "Reading Qualifier": "=",
    "polymerase ribozyme fitness (log ratio)": -2.76
  }
]
